test: physchem; details: buffer, pH 9
Bridges are numbered along the chain shown (N, C = ends). Where no end group is shown, it is not given here.
READOUT_TYPE: remaining at 144 h (%)
Numeric answer only, unit % assumed.

Inquiry: Item under review: GSQYCVPVDQPCSLNTQPCCDDATCTQERNENGHTVYYCRA (disulfide 5-20, 12-25, 19-39) [GS-ω/κ-hexatoxin-Hv1h] . Reported remaining at 144 h?
Reply text: 81

###

experiment: physchem; details: buffer, pH 9
Bridges are numbered along the chain shown (N, C = ends). Where no end group is shown, it is not given here.
READOUT_TYPE: remaining at 360 h
Kindly report the value followed by its unit.

Inquiry: Item under review: GSQYCVPVDQPCSLNTQPCCDDATCTQERNENGHTVYYCRA (disulfide 5-20, 12-25, 19-39) [GS-ω/κ-hexatoxin-Hv1h] . Reported remaining at 360 h?
Reply text: 50%

Each recorded value in this set is attributed to patent US20240076327A1.
